In this section we review reported Bliss excess values for a set of molecules.
tested on: MLMA (Other Blood Carcinomas); assay: Bliss excess, mean over the matrix (fraction); higher = more synergy;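 further: after 72 h of two-drug dosing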
measured-attribute: Bliss excess

COc1nnc2ccc(N3CCC(c4ccc(OCCN5CCN(C)C(=O)[C@H]5C)cc4)CC3)nn12 [AZD5153] + Cc1c2c(nn1C)CSCc1cc(n(C)n1)CSc1cc(c3ccccc3c1)OCCCc1c(C(=O)O)n(C)c3c-2c(Cl)ccc13 [AZD5991] (first compound max 1 µM, 7x7, partner max 1 µM)
-0.0085
Cc1c2c(nn1C)CSCc1cc(n(C)n1)CSc1cc(c3ccccc3c1)OCCCc1c(C(=O)O)n(C)c3c-2c(Cl)ccc13 [AZD5991] + CC(=O)O[C@H]1C(=O)[C@@]2(C)[C@H]([C@H](OC(=O)c3ccccc3)[C@]3(O)C[C@H](OC(=O)[C@H](O)[C@@H](NC(=O)c4ccccc4)c4ccccc4)C(C)=C1C3(C)C)[C@]1(OC(C)=O)CO[C@@H]1C[C@@H]2O [Paclitaxel] (first compound max 1 µM, 7x7, partner max 3 µM)
-0.0803
CN(CCO)CC[C@H](CSc1ccccc1)Nc1ccc(S(=O)(=O)NC(=O)c2ccc(N3CCC([C@@H](O)c4ccccc4-c4ccc(Cl)cc4)CC3)cc2)cc1S(=O)(=O)C(F)(F)F [AZD4320] + CS(=O)(=O)CCNCc1ccc(-c2ccc3ncnc(Nc4ccc(OCc5cccc(F)c5)c(Cl)c4)c3c2)o1 [Lapatinib] (first compound max 1 µM, 7x7, partner max 10 µM)
0.014
Cc1c2c(nn1C)CSCc1cc(n(C)n1)CSc1cc(c3ccccc3c1)OCCCc1c(C(=O)O)n(C)c3c-2c(Cl)ccc13 [AZD5991] + CCN(CCO)CCCOc1ccc2c(Nc3cc(CC(=O)Nc4cccc(F)c4)[nH]n3)ncnc2c1 [AZD2811] (first compound max 1 µM, 7x7, partner max 1 µM)
0.028
CC1(C)CCC(CN2CCN(c3ccc(C(=O)NS(=O)(=O)c4ccc(NCC5CCOCC5)c([N+](=O)[O-])c4)c(Oc4cnc5[nH]ccc5c4)c3)CC2)=C(c2ccc(Cl)cc2)C1 [Venetoclax] + CCN(CCO)CCCOc1ccc2c(Nc3cc(CC(=O)Nc4cccc(F)c4)[nH]n3)ncnc2c1 [AZD2811] (first compound max 1 µM, 7x7, partner max 1 µM)
-0.0633
C=CCn1c(=O)c2cnc(Nc3ccc(N4CCN(C)CC4)cc3)nc2n1-c1cccc(C(C)(C)O)n1 [AZD1775] + CCc1c2c(nc3ccc(O)cc13)-c1cc3c(c(=O)n1C2)COC(=O)[C@]3(O)CC [SN-38] (first compound max 1 µM, partner max 0.3 µM)
-0.0639
Cn1cnc2c(F)c(Nc3ccc(Br)cc3Cl)c(C(=O)NOCCO)cc21 [Selumetinib] + CCN(CCO)CCCOc1ccc2c(Nc3cc(CC(=O)Nc4cccc(F)c4)[nH]n3)ncnc2c1 [AZD2811] (first compound max 10 µM, 7x7, partner max 1 µM)
-0.026
Cc1cc2ncnn2cc1Nc1ncc2c(n1)n(C1CCOCC1)c(=O)n2C [AZD7648] + COc1cc([C@@H]2c3cc4c(cc3[C@@H](O[C@@H]3O[C@@H]5CO[C@@H](C)O[C@H]5[C@H](O)[C@H]3O)[C@H]3COC(=O)[C@H]23)OCO4)cc(OC)c1O [Etoposide] (first compound max 10 µM, 7x7, partner max 10 µM)
-0.0968
Cc1c2c(nn1C)CSCc1cc(n(C)n1)CSc1cc(c3ccccc3c1)OCCCc1c(C(=O)O)n(C)c3c-2c(Cl)ccc13 [AZD5991] + Cc1cc2ncnn2cc1Nc1ncc2c(n1)n(C1CCOCC1)c(=O)n2C [AZD7648] (first compound max 1 µM, 7x7, partner max 10 µM)
-0.0001
CS(=O)(=O)CCNCc1ccc(-c2ccc3ncnc(Nc4ccc(OCc5cccc(F)c5)c(Cl)c4)c3c2)o1 [Lapatinib] + NC1(c2ccc(-c3nc4ccn5c(=O)[nH]nc5c4cc3-c3ccccc3)cc2)CCC1 [MK-2206] (first compound max 10 µM, 7x7, partner max 10 µM)
-0.093
N#Cc1cnc(Nc2cc(NC[C@H]3CNCCO3)c(C(F)(F)F)cn2)cn1 [SRA737] + C=CCn1c(=O)c2cnc(Nc3ccc(N4CCN(C)CC4)cc3)nc2n1-c1cccc(C(C)(C)O)n1 [AZD1775] (first compound max 10 µM, partner max 1 µM)
-0.0114
NC1(C(=O)N[C@@H](CCO)c2ccc(Cl)cc2)CCN(c2ncnc3[nH]ccc23)CC1 [Capivasertib] + CC(C)n1c(=O)n(C)c2cnc3cc(F)c(-c4ccc(OCCCN5CCCCC5)nc4)cc3c21 [AZD1390] (first compound max 10 µM, 7x7, partner max 0.3 µM)
-0.0216
COc1cccc(OCCCN)c1-c1cc(Nc2cnc(C#N)cn2)n[nH]1 [Prexasertib] + O=C(c1cc(Cc2n[nH]c(=O)c3ccccc23)ccc1F)N1CCN(C(=O)C2CC2)CC1 [Olaparib] (first compound max 1 µM, 7x7, partner max 10 µM)
-0.0442
Cn1cnc2c(F)c(Nc3ccc(Br)cc3Cl)c(C(=O)NOCCO)cc21 [Selumetinib] + C=CCn1c(=O)c2cnc(Nc3ccc(N4CCN(C)CC4)cc3)nc2n1-c1cccc(C(C)(C)O)n1 [AZD1775] (first compound max 10 µM, partner max 1 µM)
-0.0257
